# credit: the supplement of paper PMC10567573

B1: FAM189A2 (parent)
chain: VAAALRYLQIFATRRSCIDESQIS

Variants of: B1
Experiment: protein stability index of a GFP-peptide fusion (GPS, HEK-293T) (PSI 1-6); higher = more stable;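 also: lentivirally expressed fusions sorted by FACS into six bins by GFP to DsRed ratio, PSI derived from sequencing read proportions per bin multiplied by bin number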
Conditions: c terminus: a fixed tail appended
observable: protein stability index
Give the figure by itself; no unit, no explanation.

Reference set (2 entries):
itemSequence | numericResult
VAAALRYLQIFATRRSCIDESKIS [Q22K] | 2.53
VAAALIYLQIFATRRSCIDESQIS [R6I] | 4.08

Give the value of protein stability index reported for the following: VAAALRYLQIFATRRSVIDESQIS [C17V]
1.27

Let me know recorded protein stability index for VAAALRYLQIFATRRSCIDESQPS [I23P] , thanks.
2.46

Using the record for VAAALRYLQIFMTRRSCIDESQIS [A12M] , state its measured protein stability index.
2.18

Answer with the recorded protein stability index for the variant listed here: VAAALRYLQIFATRRSCIDGSQIS [E20G]
2.34

Provide protein stability index value for the following variant: VAAALRYLQIFANRRSCIDESQIS [T13N]
1.99

# return recorded protein stability index for input VAAALRYLQMFATRRSCIDESQIS [I10M]
2.68

Name the recorded protein stability index of the item VAAALRYLQIFATRRSCIAESQIS [D19A] in your answer.
2.45

Consider the variant VAAALRYLQIFATRRSCIDQSQIS [E20Q] . State its measured protein stability index.
2.35

Answer with the recorded protein stability index of KAAALRYLQIFATRRSCIDESQIS [V1K] only.
1.65

Name the recorded protein stability index of the variant listed here: VAAALRYLQIFATLRSCIDESQIS [R14L]
2.5
